- Tested on: A-427
- assay summary: relative viability (nuclei count vs DMSO), 5 days (fraction); higher = more cells survive
- conditions used: first compound 0.03162 µM
relative viability overview
reported property: relative viability

>  <compound>
CCN(CC)CCCCNc1ncc2cc(-c3cc(OC)cc(OC)c3)c(NC(=O)NC(C)(C)C)nc2n1 + O=C(c1cc(Cc2n[nH]c(=O)c3ccccc23)ccc1F)N1CCN(C(=O)C2CC2)CC1 [Olaparib] (partner 8 µM)

>  <numeric value>
0.746

$$$$
>  <compound>
CCN(CC)CCCCNc1ncc2cc(-c3cc(OC)cc(OC)c3)c(NC(=O)NC(C)(C)C)nc2n1 + Nc1nc2[nH]cc(CCc3ccc(C(=O)N[C@@H](CCC(=O)O)C(=O)O)cc3)c2c(=O)[nH]1 [Pemetrexed] (partner 0.2 µM)

>  <numeric value>
1

$$$$
>  <compound>
O=c1cc(N2CCOCC2)oc2c(-c3cccc4c3sc3ccccc34)cccc12 + CS(=O)(=O)CCNCc1ccc(-c2ccc3ncnc(Nc4ccc(OCc5cccc(F)c5)c(Cl)c4)c3c2)o1 [Lapatinib] (partner 2 µM)

>  <numeric value>
1.01

$$$$
>  <compound>
CCN(CC)CCCCNc1ncc2cc(-c3cc(OC)cc(OC)c3)c(NC(=O)NC(C)(C)C)nc2n1 + CC(C)C[C@H](NC(=O)[C@H](Cc1ccccc1)NC(=O)c1cnccn1)B(O)O [Bortezomib] (partner 0.002 µM)

>  <numeric value>
0.989

$$$$
>  <compound>
CCN(CC)CCCCNc1ncc2cc(-c3cc(OC)cc(OC)c3)c(NC(=O)NC(C)(C)C)nc2n1 + C[C@]1(O)C[C@@H](c2nc(-c3ccc4ccc(-c5ccccc5)nc4c3)c3c(N)nccn32)C1 [Linsitinib] (partner 1 µM)

>  <numeric value>
1.17

$$$$
>  <compound>
CCN(CC)CCCCNc1ncc2cc(-c3cc(OC)cc(OC)c3)c(NC(=O)NC(C)(C)C)nc2n1 + NC(=O)Nc1cc(-c2cccc(F)c2)sc1C(=O)N[C@H]1CCCNC1 [AZD7762] (partner 0.2 µM)

>  <numeric value>
0.671

$$$$
>  <compound>
O=c1cc(N2CCOCC2)oc2c(-c3cccc4c3sc3ccccc34)cccc12 + CC1(C)CCC(c2ccc(Cl)cc2)=C(CN2CCN(c3ccc(C(=O)NS(=O)(=O)c4ccc(N[C@H](CCN5CCOCC5)CSc5ccccc5)c(S(=O)(=O)C(F)(F)F)c4)cc3)CC2)C1 [Navitoclax] (partner 0.5 µM)

>  <numeric value>
0.935

$$$$
>  <compound>
CCN(CC)CCCCNc1ncc2cc(-c3cc(OC)cc(OC)c3)c(NC(=O)NC(C)(C)C)nc2n1 + CC(=O)c1c(C)c2cnc(Nc3ccc(N4CCNCC4)cn3)nc2n(C2CCCC2)c1=O [Palbociclib] (partner 0.5 µM)

>  <numeric value>
0.475

$$$$
>  <compound>
CCN(CC)CCCCNc1ncc2cc(-c3cc(OC)cc(OC)c3)c(NC(=O)NC(C)(C)C)nc2n1 + C[C@@H](Oc1cc(-c2cnn(C3CCNCC3)c2)cnc1N)c1c(Cl)ccc(F)c1Cl [Crizotinib] (partner 1 µM)

>  <numeric value>
0.812

$$$$
